Recorded pEC50 by entry
System: Hepatitis C virus
Test: Antiviral activity against HCV genotype 1b infected in human Huh-5.2 cells assessed as decrease in HCV replicon RNA replication after 4 days by luciferase assay
Type: functional, cell-based, Hepacivirus hominis
Settings: Huh-5-2, 96 h
pEC50: −log10 of the molar value.

Molecular string	pEC50
COC(=O)N[C@H](C(=O)N1CCC[C@H]1c1nc2cc(C#Cc3cc4[nH]c([C@@H]5CCCN5C(=O)[C@@H](NC(=O)OC)C(C)C)nc4s3)ccc2[nH]1)C(C)C	9.67
COC(=O)N[C@H](C(=O)N1C[C@@H](C)C[C@H]1c1nc2cc(C#Cc3cc4[nH]c([C@@H]5C[C@H](C)CN5C(=O)[C@@H](NC(=O)OC)C(C)C)nc4s3)ccc2[nH]1)C(C)C	10.96
COC(=O)N[C@H](C(=O)N1C[C@@H](C)C[C@H]1c1ncc(-c2ccc(-c3ccc(-c4cc5[nH]c([C@@H]6C[C@H](C)CN6C(=O)[C@@H](NC(=O)OC)C(C)C)nc5s4)cc3F)cc2)[nH]1)C(C)C	11.22
